# tested_on: T1, cyno EpCAM (recombinant, ELISA antigen) (cynomolgus monkey)
# T1 construct: extracellular domain; also called cynomolgus EpCAM extracellular domain
# procedure_text: ELISA, cyno EpCAM, pH 6.0
Consider the following binders and their measured EC50 readings.
Expressed in µg/mL, but write only the number.

binder="BAP-105.4-02-01 (antibody, V domains shown, Humanized) VH: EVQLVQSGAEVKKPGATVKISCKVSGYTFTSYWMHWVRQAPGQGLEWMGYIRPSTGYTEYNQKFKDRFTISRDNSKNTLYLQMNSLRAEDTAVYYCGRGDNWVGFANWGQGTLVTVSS VL: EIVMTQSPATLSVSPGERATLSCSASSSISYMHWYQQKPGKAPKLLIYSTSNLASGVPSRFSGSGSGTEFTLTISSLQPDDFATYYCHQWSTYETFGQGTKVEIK" experimental_value=0.674

# context switch: different binder, same EC50
QUERY: Which EC50 is listed for BAP-105.4-03-02 (antibody, V domains shown, Humanized) VH: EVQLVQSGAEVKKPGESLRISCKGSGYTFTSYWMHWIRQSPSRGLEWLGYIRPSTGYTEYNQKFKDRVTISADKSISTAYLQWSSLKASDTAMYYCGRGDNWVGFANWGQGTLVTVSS VL: EIVMTQSPATLSVSPGERATLSCSASSSISYMHWYQQKPGKAPKLLIYSTSNLASGIPPRFSGSGYGTDFTLTINNIESEDAAYYFCHQWSTYETFGQGTKVEIK ?
RESULT: 0.084

Source of measurements: patent US20260053904A1
